biological target: Guanidinoacetate N-methyltransferase (Homo sapiens) (UniProt Q14353); assay: Primary Screen for Target Class Profiling of Small Molecule Inhibitors of Methyltransferases; settings: purified enzyme, MTase-Glo SAH luminescence; measured here: GAMT inhibition; at 40 µM; stronger effect = lower value; further: on the % scale 0 is the no-effect control and ±100 the full control effect
In all, about 25,000 compounds went through this assay and about 970 (3.9%) were called active. Another 8% or so got no clear call; they are omitted. Shown is part of a subset that was picked to be rich in actives.

{"compound": "CCCS(=O)(=O)N1CCCC(OCc2noc(C3CCOCC3)n2)C1 (stereo not drawn)", "activity change, negative = inhibition": "-6.9%"}
{"compound": "O=C(CCc1nnc2ccc(NCCCN3CCCC3=O)nn12)NCc1ccccc1Cl", "activity change, negative = inhibition": "2.26%"}
{"compound": "Cc1cc2c(cc3n2CC(C)(C(=O)NC2CCCCC2)N(C2CCCCCC2)C3=O)o1 (stereo not drawn)", "activity change, negative = inhibition": "9.51%"}
{"compound": "CC1CCN(S(=O)(=O)c2ccc3c(ccn3CCC(=O)N3CCN(c4ccccn4)CC3)c2)CC1", "activity change, negative = inhibition": "-4.09%"}
{"compound": "COc1ccccc1CNC(=O)c1nn(CC2CC2)c2c1CNCC2", "activity change, negative = inhibition": "-7.04%"}
{"compound": "O=C(Nc1ccc2ncnc(N3CCCCC3)c2c1)C1CCCCC1", "activity change, negative = inhibition": "-88.7%"}
{"compound": "COc1ccc(-c2nc3ccncc3[nH]2)cc1", "activity change, negative = inhibition": "-103%"}
{"compound": "COc1cc2ncnc(Nc3cccc(Cl)c3F)c2cc1OC(=O)N1CCN(C)C[C@H]1C", "activity change, negative = inhibition": "0.224%"}
{"compound": "CC(C)CCn1c(=O)c2ccccc2n2c(CCC(=O)NCCc3ccccc3)nnc12", "activity change, negative = inhibition": "0%"}
{"compound": "COC1CCN(CC2CCCCCN2C(=O)NCc2ccc(F)cc2)CC1 (stereo not drawn)", "activity change, negative = inhibition": "-1.47%"}
{"compound": "CCCS(=O)(=O)N1CCCC(Cc2noc(-c3cnccn3)n2)C1 (stereo not drawn)", "activity change, negative = inhibition": "-4.91%"}
{"compound": "Cn1c(=O)n(C)c2cc(Nc3nc4ccccc4nc3NS(=O)(=O)c3ccc(Cl)cc3)ccc21", "activity change, negative = inhibition": "-3.35%"}
{"compound": "Cc1ccc(N2C(=O)c3cc4sccc4n3CC2(C)C(=O)NC2CCCCC2C)cc1 (stereo not drawn)", "activity change, negative = inhibition": "1.51%"}
{"compound": "Cc1cc(C(=O)N2CCCCCC2CN2CCC(C)CC2)nn1C (stereo not drawn)", "activity change, negative = inhibition": "0.856%"}
{"compound": "CN1C(=O)c2cc(C(=O)NCCc3cccs3)nn2CC1(C)C(=O)NCc1ccc(F)cc1 (stereo not drawn)", "activity change, negative = inhibition": "0%"}
{"compound": "CCCn1c(=O)c2ccc(C(=O)NC3CCCC3)cc2n2c(=O)n(Cc3ccc(F)cc3Cl)nc12", "activity change, negative = inhibition": "-0.898%"}
{"compound": "Cc1ccc(Cn2c(=O)c3ccc(C(=O)NC(C)C)cc3n3c(=O)n(Cc4cccc(F)c4)nc23)cc1", "activity change, negative = inhibition": "1.49%"}
{"compound": "Cc1noc(C)c1S(=O)(=O)NCCC1CN(c2cnn(C)c(=O)c2)CCO1 (stereo not drawn)", "activity change, negative = inhibition": "-2.35%"}
{"compound": "C[C@@H]1CC[C@]2(C(=O)O[C@@H]3O[C@H](CO)[C@@H](O)[C@H](O)[C@H]3O)CC[C@]3(C)C(=CCC4[C@@]5(C)C[C@@H](O)[C@H](O)[C@](C)(C(=O)O)C5CC[C@]43C)[C@@H]2[C@]1(C)O (stereo partly drawn)", "activity change, negative = inhibition": "4.44%"}
{"compound": "CCOC(=O)c1cc2n(n1)CC(C)(C(=O)NCc1ccc(F)cc1)N(Cc1ccccc1OC)C2=O (stereo not drawn)", "activity change, negative = inhibition": "3.18%"}
{"compound": "CC(C)c1nccn1CCCNc1nc(-c2ccncc2)nc2c1cnn2C", "activity change, negative = inhibition": "-50.1%"}
{"compound": "CCOc1ccccc1CN1C(=O)c2ccc(-c3ccco3)n2CC1(C)C(=O)NC1CCCCC1 (stereo not drawn)", "activity change, negative = inhibition": "0%"}
{"compound": "CCOC(=O)c1cc2n(n1)CC(C)(C(=O)NC1CCCC1)N(c1ccc(C)c(C)c1)C2=O (stereo not drawn)", "activity change, negative = inhibition": "4.83%"}
{"compound": "CC1(C)CCC2(C(=O)OC3OC(COC4OC(CO)C(O)C(O)C4O)C(O)C(O)C3O)CCC3(C)C(=CCC4C5(C)CCC(O)C(C)(C(=O)O)C5CCC43C)C2C1O (stereo not drawn)", "activity change, negative = inhibition": "5.96%"}
{"compound": "CC1(C)CCC(C)(C)c2cc3c(cc21)Sc1ccccc1N=C3c1ccc(C(=O)O)cc1", "activity change, negative = inhibition": "4.41%"}
{"compound": "CCCS(=O)(=O)N1CCCC(Cn2c(C)nc3cccnc32)C1 (stereo not drawn)", "activity change, negative = inhibition": "-3.03%"}
{"compound": "CCCN1C(=O)c2cc(C(=O)N3CCC(C)CC3)nn2CC1(C)C(=O)NC1CCCC1 (stereo not drawn)", "activity change, negative = inhibition": "3.26%"}
{"compound": "COC[C@H]1NC(=O)CC[C@H]1C(=O)N1CCN(c2cccc(C)c2)CC1", "activity change, negative = inhibition": "-7.51%"}
{"compound": "CC(=O)c1cnc2ccc(-c3cc(Cl)c(O)c(Cl)c3)nc2c1NC1CCC(CN(C)C)CC1 (stereo not drawn)", "activity change, negative = inhibition": "1.31%"}
{"compound": "CCCN1C(=O)c2cc3sccc3n2CC1(C)C(=O)NC1CCC(C)CC1 (stereo not drawn)", "activity change, negative = inhibition": "4.2%"}
{"compound": "CC1CC(O)/C=C/C(O)/C=C\\C(=O)O1 (stereo not drawn)", "activity change, negative = inhibition": "10.1%"}
{"compound": "C=C(C)Cn1c(=O)[nH]c2ccccc21", "activity change, negative = inhibition": "0%"}
{"compound": "CN(CCCNC(=O)CCCc1nnc2n3nc(-c4ccccc4)nc3c3ccccc3n12)Cc1ccccc1", "activity change, negative = inhibition": "1.44%"}
{"compound": "COCC(=O)Nc1ncncc1-c1noc([C@@H]2CCCN2Cc2cc(OC)c(OC)c(OC)c2)n1", "activity change, negative = inhibition": "-8.08%"}
{"compound": "CCC(C)C(=O)OC1C(C)C2(O)C(C=C(CO)CC3(O)C(=O)C(C)=CC32)C2C(C)(C)C12OC(=O)C(C)C (stereo not drawn)", "activity change, negative = inhibition": "-5.2%"}
{"compound": "C=C1C(=O)O[C@@H]2C[C@@]3(C)CCCC(=C)[C@]3(O)C[C@H]12", "activity change, negative = inhibition": "5.34%"}
{"compound": "COc1cc(N)c(Cl)cc1C(=O)NC[C@@H]1CCN2CCC[C@@H]12", "activity change, negative = inhibition": "-14.1%"}
{"compound": "COC(=O)[C@]12C(=O)C(C)=C(O)[C@@]1(C)C(C)=CC1[C@@]34CC[C@@H](OC(C)=O)C(C)(C)C3[C@H](C[C@]12C)OC4=O (stereo partly drawn)", "activity change, negative = inhibition": "3.85%"}

* * *

Entries annotated with measured activity change, negative = inhibition
molecular target: Histamine N-methyltransferase (Homo sapiens) (UniProt P50135); assay: Primary Screen for Target Class Profiling of Small Molecule Inhibitors of Methyltransferases; settings: purified enzyme, MTase-Glo SAH luminescence; measured here: HNMT inhibition; at 40 µM; stronger effect = lower value; further: on the % scale 0 is the no-effect control and ±100 the full control effect
Sequence (P50135 whole entry, looked up): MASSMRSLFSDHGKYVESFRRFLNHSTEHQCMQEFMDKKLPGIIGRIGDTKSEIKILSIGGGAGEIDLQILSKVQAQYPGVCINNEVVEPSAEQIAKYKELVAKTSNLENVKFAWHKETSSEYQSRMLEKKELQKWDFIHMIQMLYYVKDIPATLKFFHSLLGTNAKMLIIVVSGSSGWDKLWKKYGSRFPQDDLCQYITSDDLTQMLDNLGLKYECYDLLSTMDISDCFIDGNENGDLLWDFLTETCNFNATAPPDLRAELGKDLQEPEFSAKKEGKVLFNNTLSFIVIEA
Hit rate of the full screen: of about 25,000 compounds, about 970 (3.9%) were called active. Not shown: some 8% with an inconclusive outcome. The full list was thinned out, with actives kept by preference.

{"compound": "Nc1ccc2c3c(cccc13)C(=O)NC2=O", "units": "%", "activity change, negative = inhibition": -8.7}
{"compound": "Oc1cc2c(cc1O)CN(C(=S)NCCc1ccc(Cl)cc1)CCC2", "units": "%", "activity change, negative = inhibition": -4.18}
{"compound": "CC1(C)[C@H](Cc2cc(-c3ccccc3)on2)C[C@@H]1NCC1CC1", "units": "%", "activity change, negative = inhibition": -40.7}
{"compound": "CC1(C(=O)NC2CCCCC2)Cn2c(nc3ccccc32)C(=O)N1CCCc1ccccc1 (stereo not given)", "units": "%", "activity change, negative = inhibition": -0.222}
{"compound": "COc1ccc(-c2ncc3c(n2)OCCN(Cc2ccccc2)C3=O)cn1", "units": "%", "activity change, negative = inhibition": -5.55}
{"compound": "CCOC(=O)c1cc2n(n1)CC(C)(C(=O)NC1CCCC1)N(c1ccc(C)c(C)c1)C2=O (stereo not given)", "units": "%", "activity change, negative = inhibition": 3.71}
{"compound": "CCCc1sc(NC(=O)C[C@H]2NC(=O)c3ccccc3NC2=O)nc1C(=O)OC", "units": "%", "activity change, negative = inhibition": -1.11}
{"compound": "Cc1ccc(Cn2c(=O)c3ccccc3n3c(CCC(=O)NCc4ccc5c(c4)OCO5)nnc23)cc1", "units": "%", "activity change, negative = inhibition": -2.65}
{"compound": "CN1C(=O)c2cc(C(=O)N3CCN(Cc4ccccc4)CC3)nn2CC1(C)C(=O)NCc1ccccc1 (stereo not given)", "units": "%", "activity change, negative = inhibition": 4.84}
{"compound": "C=C(C)Cn1c(=O)[nH]c2ccccc21", "units": "%", "activity change, negative = inhibition": 7.74}
{"compound": "CC(C)Cn1c(=O)c2ccccc2n2c(=O)n(Cc3ccccc3)nc12", "units": "%", "activity change, negative = inhibition": 6.83}
{"compound": "CCCCN1C(=O)c2cc(C(=O)NCc3cccc(OC)c3)nn2CC1(C)C(=O)NC1CCCC1 (stereo not given)", "units": "%", "activity change, negative = inhibition": 1.56}
{"compound": "Cc1cc2c(F)c(Oc3ncnn4cc(OCC(C)O)c(C)c34)ccc2[nH]1 (stereo not given)", "units": "%", "activity change, negative = inhibition": 8.7}
{"compound": "CCOc1ccc(CNC(=O)c2ncn3c2C(=O)N(C2CC2)C(C)(C(=O)NCc2ccccc2Cl)C3)cc1 (stereo not given)", "units": "%", "activity change, negative = inhibition": 7.45}
{"compound": "CCNc1ccnc(N2C[C@H]3CN(C(=O)N(C)C)C[C@@]3(C(=O)O)C2)n1", "units": "%", "activity change, negative = inhibition": 0.65}
{"compound": "CC(C)c1nccn1CCCNc1nc(-c2ccncc2)nc2c1cnn2C", "units": "%", "activity change, negative = inhibition": -86}
{"compound": "O=C(Nc1ccccc1Cl)N1CCn2cccc2C1Cc1ccccc1 (stereo not given)", "units": "%", "activity change, negative = inhibition": 0.539}
{"compound": "O=C1NC(=NC2CCCC2)C2(CCCN([S+](=O)([O-])c3ccccc3)C2)N1c1cccnc1 (stereo not given)", "units": "%", "activity change, negative = inhibition": -1.01}
{"compound": "CCc1cccc(NC(=O)Cn2c(=O)oc3cc(S(=O)(=O)N4CCC(C)CC4)ccc32)c1", "units": "%", "activity change, negative = inhibition": -8.18}
{"compound": "COc1ccc(C(=O)N2CCN(C(=O)N3CC4CC(C3)[C@H]3CCCC(=O)N3C4)CC2)c(OC)n1 (stereo not given in full)", "units": "%", "activity change, negative = inhibition": 0.52}
